System: MDA-MB-231
procedure.text: cells
condition.context: Homo sapiens, MDA-MB-231, 72 h
Description: Antiproliferative activity against human MDA-MB-231 cells assessed as inhibition of cell proliferation incubated for 72 hrs by MTT assay
measurement.type: IC50 (nM)
Give bare numbers, in nM.

List IC50 for every entry below, keeping the order given.
1. Cc1sc2c(c1C)C(c1ccc(Cl)cc1)=N[C@@H](CC(=O)NCCNC(=O)CCl)c1nnc(C)n1-2
2. Cc1sc2c(c1C)C(c1ccc(Cl)cc1)=N[C@@H](CC(=O)NCc1ccc(CNC(=O)CCl)cc1)c1nnc(C)n1-2
3. Cc1sc2c(c1C)C(c1ccc(Cl)cc1)=N[C@@H](CC(=O)NCC1CCN(C(=O)CCl)CC1)c1nnc(C)n1-2
4. Cc1sc2c(c1C)C(c1ccc(Cl)cc1)=N[C@@H](CC(=O)Nc1ccc(NC(=O)CCl)cc1)c1nnc(C)n1-2

3150
1370
1000
1400

Recorded values, source ChEMBL document CHEMBL6153076.
